Test system: NCI/ADR-RES ovarian
Test: NCI-60 one-dose screen, 48 h
Conditions: 10 µM unless noted
Compounds without any hit were thinned out: in the full panel of roughly 83,000, 20% have a hit. Active and inactive are the calls of the source. Rule for the calls: active = growth percent below 10; inactive = the rest.
Please answer using one outcome listed in active, inactive

Use these answered entries as a reference point.
# molecule, assigned_category
data = [
    ("COC(=O)c1c2c(c(C)[n+]([O-])c1C)C(=O)C=C(NCc1ccc(F)cc1)C2=O", "active"),
    ("Nc1cccc2c(=S)c3ccccc3[nH]c12", "inactive"),
]

Prompt: Test call for this molecule, please: NS(=O)(=O)c1cc(Br)c2c(c1)S(=O)(=O)NCN2
Response: inactive

Prompt: GET /call?item= Cc1ccc2nc(NC(=O)CSC(=S)N3CCN(C)CC3)sc2c1 returns the recorded outcome of this test.
Response: inactive

Prompt: Status in this test for CNc1ccc(Br)cc1-c1n[nH]c(=O)[nH]c1=O ?
Response: inactive

Prompt: Fill in: this test's call for CS(=O)(=O)Nc1cccc(C(=O)NCc2ccc(N3CCOCC3)cc2)c1 is ___
Response: inactive

----------
Measured growth by item
System: HCT-15 colon
Experiment: NCI-60 one-dose screen, 48 h (100 = growth as untreated, 0 = no growth, -100 = all killed)
Details: 10 µM unless noted
The panel holds about 83,000 compounds, 20% with a hit somewhere; the sample as a whole holds those more often.
Express your answer in %, writing the number without its unit.

// known answers, use as guide
# compound, obs_value
records = [
    ("O=C1CN2CCC1C/C2=C\\c1ccnc2c(Cl)cccc12 (stereo not given)", 82.6),
    ("Cn1c(=O)c(S(=O)(=O)c2ccccc2)cc2ccc3c(cnn3-c3ccc(Cl)cc3)c21", 73),
    ("CN1CCN(CCCn2c3c(sc4ncccc43)c(=O)n3nnc(-c4ccccc4)c23)CC1", -40.1),
    ("O=C1NC(=O)C(CSc2ccccc2)(c2ccccc2)N1 (stereo not given)", 119),
    ("CCOC(=O)C1=C(C)N2C(=NC3=C(CCCC/C3=C\\c3ccccc3)C2c2ccccc2)S1 (stereo not given)", 96.9),
]

Prompt: Provide growth value for the following compound: COc1ccc(C(=O)COc2cccc(/C=C3\CSc4ccc(C)cc4C3=O)c2)cc1
Response: 84.8

Prompt: Supply measured growth of COc1ccc(-c2c(-c3cc4c(c(OC)c3OC)OCO4)noc2N)cc1 in your reply.
Response: 27

Prompt: Report growth, nothing else, for this compound: COc1ccc(C2CC(c3cc(OC)c(OC)c(OC)c3)=NN2c2ccc(S(N)(=O)=O)cc2)cc1 (stereo not given)
Response: 66.8

Prompt: Respond only with growth recorded for COc1ccc(/C=N/OCC(O)CN2CCC(O)CC2)cc1OC1CCCC1 (stereo not given)
Response: 109

Prompt: Dear colleague, please send me the reported growth for CCCCCn1c(=N)n(CC(O)COc2cccc(C)c2)c2ccccc21 (stereo not given) when you can.
Response: 11.1

----------
Test system: SK-OV-3 ovarian
Experiment: NCI-60 one-dose screen, 48 h (100 = growth as untreated, 0 = no growth, -100 = all killed)
Conditions: 10 µM
Experimental: Growth inhibition of the SK-OV-3 human tumor cell line is measured as a screen for anti-cancer activity. Cells are grown in 96 well plates and exposed to the test compound for 48 hours. Compounds are tested at a single concentration, which is 10^-5 M for most compounds. The reported endpoint is percent growth (GI% or GIPRCNT), where numbers from 0 - 100% represent growth inhibition, and numbers from -100% - 0 represent cell death. For example, a value of 40 represents 60% growth inhibition. […]
Compounds without any hit were thinned out: in the full panel of roughly 83,000, 20% have a hit.
reported_property: growth (%)
Return type: number; implicit unit %.

# molecule, reported_property, obs_value
data = [
    ("COc1cc(NC(=O)COc2ccccc2)c(C(N)=O)cc1OC", "growth", 30.4),
    ("COc1ccc(OC)c2ncccc12", "growth", 96.7),
    ("Cc1nc2nc(C(F)(F)F)[nH]c2nc1C", "growth", 98.5),
]

Prompt: State, in one line, measured growth of Clc1ccc2c(c1)C[C@H]1C[C@@H](c3cccs3)N2O1
Response: 98.9

----------
Test system: SR leukemia
Assay: NCI-60 one-dose screen, 48 h (100 = growth as untreated, 0 = no growth, -100 = all killed)
Conditions: 10 µM unless noted
About 83,000 compounds went through this panel and 20% of them were active in at least one assay; those are over-represented in the sample as a whole.
reported_property: growth (%)
# value in %; strip the unit string

Field: example entries. Status: answers known.
# molecule, growth [%]
rows = [
    ("COc1cc(/C=C2\\C(=O)N(c3c(Cl)cccc3Cl)c3ccccc32)cc(OC)c1O", 3.84),
    ("Cc1nc(-c2ccccc2)cc2c(O)c(C(=O)N/N=C/Cc3ccccc3)[nH]c(=O)c12", 46.1),
]

Prompt: Tell me growth reported for COc1cc2nc(N3CCC[C@H](NC4=CC(=O)c5ccccc5C4=O)C3)nc(N)c2cc1OC
Response: -20.1

Prompt: Return reported growth. Input molecule: c1ccc2cc(Cn3c(-c4ccc5ccccc5c4)[n+](Cc4ccc5ccccc5c4)c4ccccc43)ccc2c1
Response: -27.8

Prompt: Identify the reported growth for the following entry. COC(=O)/C=C1/CCC2C3CCC4=CC(=O)C(Br)CC4(C)C3C(=O)CC12C (stereo unspecified)
Response: 33

Prompt: Complete the entry with growth for C=C1CC[C@@H]2[C@@](C)(CCC[C@]2(C)C(=O)O)[C@@H]1CC[C@H](CO)CCO
Response: 85.2

----------
Recorded growth for the following compounds
Test system: SK-OV-3 ovarian
Assay: NCI-60 one-dose screen, 48 h (100 = growth as untreated, 0 = no growth, -100 = all killed)
Settings: 10 µM
Procedure: Growth inhibition of the SK-OV-3 human tumor cell line is measured as a screen for anti-cancer activity. Cells are grown in 96 well plates and exposed to the test compound for 48 hours. Compounds are tested at a single concentration, which is 10^-5 M for most compounds. The reported endpoint is percent growth (GI% or GIPRCNT), where numbers from 0 - 100% represent growth inhibition, and numbers from -100% - 0 represent cell death. For example, a value of 40 represents 60% growth inhibition. […]
The panel holds about 83,000 compounds, 20% with a hit somewhere; the sample as a whole holds those more often.
Give just the numeric value; % need not be written.

The following compounds have reported results that may help.
# compound, growth, %
data = [
    ("O=C1C2CC3C(CC2C(=O)[N]1[Sn]([c]1ccccc1)([c]1ccccc1)[c]1ccccc1)C1(Cl)C(Cl)=C(Cl)C3(Cl)C1(Cl)Cl (stereo unspecified)", -100),
    ("COc1ncc(F)c(OC)n1", 97.8),
    ("O=C(CCCCCCC(=O)Nc1ccc2c(c1)/C(=C/c1ccc[nH]1)C(=O)N2)NO", 12.2),
    ("Cn1c2ccccc2c2nn(C(=O)c3ccccc3)c(=O)nc21", 116),
    ("COc1cc(C(F)(F)F)ccc1-c1cc(-c2ccc(F)cc2)n[nH]1", 104),
]

Lab note: next compound to report on.
Prompt: Return value of growth for input Clc1ccc2c(N3CCN(c4ccnc(NC5CCCCC5)n4)CC3)ccnc2c1 , no commentary.
Response: 62.7

----------
Tested on: PC-3 prostate
Test: NCI-60 one-dose screen, 48 h (100 = growth as untreated, 0 = no growth, -100 = all killed)
Details: 10 µM unless noted
The panel holds about 83,000 compounds, 20% with a hit somewhere; the sample as a whole holds those more often.
Rule: growth below 90% gives 1, anything at or above gives 0.

# molecule, measurement_target, assigned_category
rows = [
    ("Clc1ccccc1Nc1ccc2nnc(-c3ccncc3)n2n1", "PC-3 prostate", 1),
    ("COc1cc(OCc2cccc(-c3ccc(C(O)c4nccs4)cc3)c2C)cc(OC)c1C=O (stereo unspecified)", "PC-3 prostate", 1),
    ("CCN(c1ccc(C(=O)N2CCN(c3ccccc3)CC2)cc1)S(C)(=O)=O", "PC-3 prostate", 0),
    ("COc1cc(-c2nc3ccccc3o2)cc(CN2CCN(c3ccccc3)CC2)c1O", "PC-3 prostate", 1),
    ("CCCCC(O)Cn1ncc(C(=O)OCC)c1NC(=O)NCc1ccccc1C(F)(F)F (stereo unspecified)", "PC-3 prostate", 1),
]

Prompt: Say whether its growth is strictly beneath 90%. Entry: O=c1oc2ccccc2cc1-c1csc(N=Nc2c(O)[nH]c3ccc(Br)cc23)n1
Response: 0

Prompt: Regarding Cc1cc(Cl)c2c(Cl)ccc(Cl)c2n1 , kindly confirm whether its growth is beneath 90%.
Response: 0

Prompt: Record CC1SC(c2ccc(Cl)cc2)N(CCc2cccs2)C1=O (stereo unspecified) : is its growth strictly below 90%?
Response: 1

Prompt: Decide: growth of COc1ccc(/C=C(\C#N)c2ccc(OC)cc2)cc1 strictly below 90%?
Response: 1

Prompt: Report whether reported growth is lower than 90% (strictly) for COc1nc2c(cc1S(=O)(=O)c1ccccc1)CCc1c-2cnn1-c1ccccc1
Response: 1
